Every entry's value here was drawn from ChEMBL document CHEMBL3988442.

EXPERIMENTAL SYSTEM: Tyrosyl-tRNA synthetase, putative (Trypanosoma cruzi (strain CL Brener))
METHOD NOTES: Trypanosoma cruzi tyrosyl tRNA synthetase (TcYRS) _High Tyrosine SOP
Format: functional
Design: scale not given: in the data most compounds retested in dose-response had high values
ASSAY CONTEXT: 30 µM
Consider the following molecules; for each one, report its Percent Effect.
Give just the numeric value; % need not be written.

The reported value for COCCO[C@H]1CCN(C(=O)c2cc(C)on2)[C@H]1Cc1ccccc1 in terms of Percent Effect is 7.73

The reported value for Cc1cc(C2CCCN(C(=O)c3ccc(C)[nH]c3=O)C2)n[nH]1 (centres undefined) in terms of Percent Effect is 3.45

The reported value for COc1ccc(OC)c(C(C)Nc2nc3c(C)nn(C)c3c(=O)n2C)c1 (centres undefined) in terms of Percent Effect is -2.15

The reported value for CC1CN(C)c2ccccc2CN1C(=O)CSc1ccncc1 (centres undefined) in terms of Percent Effect is 6.45

The reported value for Cc1ccn(-c2ccccc2NCc2ccccn2)n1 in terms of Percent Effect is 4.3

The reported value for Cc1csc(Nc2nccnc2C2CCCN2C(=O)C(C)C)n1 (centres undefined) in terms of Percent Effect is 2.12

The reported value for CC(C)CN1C[C@H]2CCN(c3ncccn3)CC[C@H]2S1(=O)=O in terms of Percent Effect is 6.45

The reported value for Cc1cc(F)ccc1OC1(C(=O)O)CCN(Cc2ccncc2)CC1 in terms of Percent Effect is 10.4

The reported value for COc1cc(C(=O)NS(=O)(=O)c2cccc(C#N)c2)cc(Cl)c1OC in terms of Percent Effect is -6.93

The reported value for N#Cc1ccccc1N1CCCN(C(=O)CCc2nccs2)CC1 in terms of Percent Effect is 3.45

The reported value for Cc1nsc(NC(=O)N2CCN(Cc3ccc(F)cc3)C(=O)C2)n1 in terms of Percent Effect is 2.66

The reported value for CCOCC(O)CN1CCN(C(=O)C2CC2)CC1 (centres undefined) in terms of Percent Effect is 9.36

The reported value for c1ccc(-c2nc(CN3CCOC(Cn4cccn4)C3)no2)cc1 (centres undefined) in terms of Percent Effect is 5.79

The reported value for CCN(C)c1ncnc2c1CCN(Cc1ccoc1)CC2 in terms of Percent Effect is 3.68

The reported value for CCS(=O)(=O)c1ccccc1N1CCC(NC(C)=O)CC1 in terms of Percent Effect is 6.93

The reported value for Cc1nc(C)c(C(=O)NCCNc2ncccc2C#N)s1 in terms of Percent Effect is 6.86

The reported value for CN(C)CC(=O)N1CCC2(CCN(Cc3ccccn3)C2=O)C1 (centres undefined) in terms of Percent Effect is 1.58

The reported value for Cc1ccc(CN2CCc3ncnc(-c4ccc(F)cc4)c3CC2)o1 in terms of Percent Effect is 1.04

The reported value for CCn1ccnc1CN1CCC(CCC(=O)Nc2ccccc2Cl)CC1 in terms of Percent Effect is 1.6

The reported value for CN1CCOC(CNCCc2ccccn2)C1 (centres undefined) in terms of Percent Effect is 8.37

The reported value for CC(c1cccc(S(N)(=O)=O)c1)N(C)CCOc1ccccc1 (centres undefined) in terms of Percent Effect is -1.96

The reported value for O=S(=O)(C1CC1)N1CCC2(CC1)CC(Oc1cccnc1)CO2 (centres undefined) in terms of Percent Effect is 3.68

The reported value for NC(=O)C1CCN(C(=O)c2cccc(OCc3cscn3)c2)CC1 in terms of Percent Effect is 2.39

The reported value for CN1CCN(c2cc(CCNC(=O)C3CCC3)nc(C3CC3)n2)CC1 in terms of Percent Effect is 4.3
